Method Notes: Tissue distribution study (heart, liver, kidney, blood) by LC-MS/MS
Format: in vivo, C57BL/6J mice
Condition Notes: male, C57BL/6J, mouse, kidney / blood; 3 mg/kg oral, 2h; read-out: Ratio (tissue/blood), Kidney
Value Kind: Kp at 2 h
Form field (numeric): enter value without unit.

(Q) Name the reported Kp at 2 h value associated with the compound `CC(C)c1cc(Oc2c(Cl)cc(-n3nc(C#N)c(=O)[nH]c3=O)cc2Cl)n[nH]c1=O`
(A) 0.64

====

Method Notes: Tissue distribution study (heart, liver, kidney, blood) by LC-MS/MS
Assay type: in vivo, C57BL/6J mice
Condition Notes: male, C57BL/6J, mouse, heart / blood; 3 mg/kg oral, 4h; read-out: Ratio (tissue/blood), Heart
Value Kind: Kp at 4 h
Form field (numeric): enter value without unit.

(Q) Name the reported Kp at 4 h value associated with the compound `CC(C)c1cc(Oc2c(Cl)cc(-n3nc(C#N)c(=O)[nH]c3=O)cc2Cl)n[nH]c1=O`
(A) 0.146
